- protocol notes: AUC in rat at 2 mg/kg, po
- Type: ADME, organism-based
- Design: dose 2 mg/kg, route oral
- condition summary: plasma
Label rule met when AUC is at or above 2000 ng·h/mL; anything below gets rule not met.

substance_smiles=C[C@@H]1CN(C(=O)c2ccccc2)CCN1c1nnc(-c2ccccc2)c2ccncc12 group_label="rule not met"
substance_smiles=C[C@@H]1CN(C(=O)c2ccccc2)CCN1c1nnc(-c2ccc(CC(N)=O)cc2)c2ccccc12 group_label="rule not met"
substance_smiles=C[C@@H]1CN(C(=O)c2ccccc2)CCN1c1nnc(-c2ccc(C(F)(F)F)cc2)c2ccccc12 group_label="rule not met"
substance_smiles=C[C@@H]1CN(C(=O)c2ccccc2)CCN1c1nnc(-c2ccccc2)c2ccccc12 group_label="rule not met"
substance_smiles=C[C@@H]1CN(C(=O)c2ccccc2)CCN1c1nnc(-c2ccc(C(F)(F)F)cc2)c2ccncc12 group_label="rule met"

###

- protocol notes: Metabolic stability in rat liver microsomes assessed as compound turn over after 30 mins
- Assay type: ADME, Microsome
- condition summary: read-out: Activity
Rule: metabolised at 0.5 h below 20% gives true (1), anything at or above gives false (0).

substance_smiles=C[C@@H]1CN(C(=O)c2ccccc2)CCN1c1nnc(-c2cncnc2)c2ccccc12 group_label="true (1)"
substance_smiles=C[C@@H]1CN(C(=O)c2ccccc2)CCN1c1nnc(-c2ccc(CC(N)=O)cc2)c2ccccc12 group_label="true (1)"
substance_smiles=C[C@@H]1CN(C(=O)c2ccccc2)CCN1c1nnc(-n2cccc2)c2ccccc12 group_label="false (0)"
substance_smiles=C[C@@H]1CN(C(=O)c2ccccc2)CCN1c1nnc(-c2ccc(C(N)=O)cc2)c2ccccc12 group_label="true (1)"
substance_smiles=C[C@@H]1CN(C(=O)c2ccccc2)CCN1c1nnc(-c2ccc(N3CCOCC3)cc2)c2ccccc12 group_label="false (0)"
substance_smiles=C[C@@H]1CN(C(=O)c2ccccc2)CCN1c1nnc(-c2ccc(C(=O)O)cc2)c2ccccc12 group_label="true (1)"
substance_smiles=C[C@@H]1CN(C(=O)c2ccccc2)CCN1c1nnc(-c2ccccn2)c2ccccc12 group_label="true (1)"
substance_smiles=C[C@@H]1CN(C(=O)c2ccccc2)CCN1c1nnc(-c2ccncc2)c2ccccc12 group_label="false (0)"
substance_smiles=C[C@@H]1CN(C(=O)c2ccccc2)CCN1c1nnc(-c2cccnc2)c2ccccc12 group_label="true (1)"
substance_smiles=CC(=O)Oc1ccc(-c2nnc(N3CCN(C(=O)c4ccccc4)C[C@H]3C)c3ccccc23)cc1 group_label="false (0)"
substance_smiles=C[C@@H]1CN(C(=O)c2ccccc2)CCN1c1nnc(-c2ccc(C(F)(F)F)cc2)c2ccncc12 group_label="true (1)"
substance_smiles=C[C@@H]1CN(C(=O)c2ccccc2)CCN1c1nnc(-n2ccnc2)c2ccccc12 group_label="true (1)"
substance_smiles=C[C@@H]1CN(C(=O)c2ccccc2)CCN1c1nnc(-c2ccc(CO)cc2)c2ccccc12 group_label="true (1)"
substance_smiles=O=C(c1ccccc1)N1CCN(c2nnc(-c3ccc(Cl)c(Cl)c3)c3ccccc23)CC1 group_label="true (1)"
substance_smiles=C[C@@H]1CN(C(=O)c2ccccc2)CCN1c1nnc(-c2ccccc2)c2ccccc12 group_label="true (1)"
substance_smiles=C[C@@H]1CN(C(=O)c2ccccc2)CCN1c1nnc(-c2ncco2)c2ccccc12 group_label="false (0)"
substance_smiles=C[C@H]1CN(C(=O)c2ccccc2)CCN1c1nnc(-c2ccc(F)cc2)c2ccccc12 group_label="false (0)"
substance_smiles=O=C(c1ccccc1)N1CCN(c2nnc(-c3ccccc3)c3ccccc23)CC1 group_label="false (0)"
substance_smiles=C[C@H]1CN(C(=O)c2ccccc2)CCN1c1nnc(-c2ccccc2)c2ccccc12 group_label="true (1)"
substance_smiles=C[C@@H]1CN(C(=O)c2ccccc2)CCN1c1nnc(-n2ccc3ccccc32)c2ccccc12 group_label="false (0)"

###

- experimental target: Nuclear receptor subfamily 1 group I member 2 (Homo sapiens, UniProt O75469)
- Sequence (O75469 whole entry): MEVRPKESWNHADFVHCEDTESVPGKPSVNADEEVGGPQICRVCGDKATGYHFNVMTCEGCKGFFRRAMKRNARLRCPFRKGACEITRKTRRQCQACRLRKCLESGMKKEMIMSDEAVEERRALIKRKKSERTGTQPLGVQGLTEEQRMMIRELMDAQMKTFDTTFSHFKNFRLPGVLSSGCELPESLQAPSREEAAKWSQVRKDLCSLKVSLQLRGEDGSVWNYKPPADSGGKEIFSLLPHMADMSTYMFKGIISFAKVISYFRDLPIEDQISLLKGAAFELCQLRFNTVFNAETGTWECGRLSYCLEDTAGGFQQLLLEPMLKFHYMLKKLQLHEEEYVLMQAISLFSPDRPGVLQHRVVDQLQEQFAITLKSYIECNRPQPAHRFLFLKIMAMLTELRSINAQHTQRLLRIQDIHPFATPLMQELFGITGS
- protocol notes: Activation of human PXR expressed in HepG2 cells assessed as luciferase activity at 2 uM by chemiluminescence assay relative to rifampin
- Type: cell-based
- condition summary: hepg2, 2 µM
measurement label: Activity (%)

substance_smiles=C[C@@H]1CN(C(=O)c2ccccc2)CCN1c1nnc(-c2ccccn2)c2ccccc12 readout_number=16
substance_smiles=C[C@H]1CN(C(=O)c2ccccc2)CCN1c1nnc(-c2ccc(F)cc2)c2ccccc12 readout_number=61
substance_smiles=C[C@@H]1CN(C(=O)c2ccccc2)CCN1c1nnc(-c2ccncc2)c2ccccc12 readout_number=25
substance_smiles=C[C@@H]1CN(C(=O)c2ccccc2)CCN1c1nnc(-c2ccc(C(N)=O)cc2)c2ccccc12 readout_number=5.9
substance_smiles=C[C@@H]1CN(C(=O)c2ccccc2)CCN1c1nnc(-c2ccccc2)c2cccnc12 readout_number=5.7
substance_smiles=C[C@@H]1CN(C(=O)c2ccccc2)CCN1c1nnc(-n2cccc2)c2ccccc12 readout_number=12
substance_smiles=C[C@@H]1CN(C(=O)c2ccccc2)CCN1c1nnc(-c2cncnc2)c2ccccc12 readout_number=7.1

###

- experimental target: UniProt O75469
- protocol notes: Activation of human PXR expressed in HepG2 cells assessed as luciferase activity at 2 uM by chemiluminescence assay relative to rifampin
- Format: cell-based
- condition summary: hepg2, 2 µM
Label t when Activity is at or above 5%; anything below gets f.

substance_smiles=C[C@@H]1CN(C(=O)c2ccccc2)CCN1c1nnc(-c2ccc(C(F)(F)F)cc2)c2ccncc12 group_label=t
substance_smiles=C[C@@H]1CN(C(=O)c2ccccc2)CCN1c1nnc(-c2ccc(CC(N)=O)cc2)c2ccccc12 group_label=f
substance_smiles=CC(=O)Oc1ccc(-c2nnc(N3CCN(C(=O)c4ccccc4)C[C@H]3C)c3ccccc23)cc1 group_label=t
substance_smiles=C[C@@H]1CN(C(=O)c2ccccc2)CCN1c1nnc(-c2ccc(N(C)C)cc2)c2ccccc12 group_label=t
substance_smiles=C[C@@H]1CN(C(=O)c2ccccc2)CCN1c1nnc(-n2ccnc2)c2ccccc12 group_label=f
substance_smiles=C[C@@H]1CN(C(=O)c2ccccc2)CCN1c1nnc(-c2cccnc2)c2ccccc12 group_label=t
substance_smiles=C[C@@H]1CN(C(=O)c2ccccc2)CCN1c1nnc(-c2ccc(CO)cc2)c2ccccc12 group_label=f

###

- experimental target: Protein smoothened (Homo sapiens)
- Sequence (Q99835 whole entry): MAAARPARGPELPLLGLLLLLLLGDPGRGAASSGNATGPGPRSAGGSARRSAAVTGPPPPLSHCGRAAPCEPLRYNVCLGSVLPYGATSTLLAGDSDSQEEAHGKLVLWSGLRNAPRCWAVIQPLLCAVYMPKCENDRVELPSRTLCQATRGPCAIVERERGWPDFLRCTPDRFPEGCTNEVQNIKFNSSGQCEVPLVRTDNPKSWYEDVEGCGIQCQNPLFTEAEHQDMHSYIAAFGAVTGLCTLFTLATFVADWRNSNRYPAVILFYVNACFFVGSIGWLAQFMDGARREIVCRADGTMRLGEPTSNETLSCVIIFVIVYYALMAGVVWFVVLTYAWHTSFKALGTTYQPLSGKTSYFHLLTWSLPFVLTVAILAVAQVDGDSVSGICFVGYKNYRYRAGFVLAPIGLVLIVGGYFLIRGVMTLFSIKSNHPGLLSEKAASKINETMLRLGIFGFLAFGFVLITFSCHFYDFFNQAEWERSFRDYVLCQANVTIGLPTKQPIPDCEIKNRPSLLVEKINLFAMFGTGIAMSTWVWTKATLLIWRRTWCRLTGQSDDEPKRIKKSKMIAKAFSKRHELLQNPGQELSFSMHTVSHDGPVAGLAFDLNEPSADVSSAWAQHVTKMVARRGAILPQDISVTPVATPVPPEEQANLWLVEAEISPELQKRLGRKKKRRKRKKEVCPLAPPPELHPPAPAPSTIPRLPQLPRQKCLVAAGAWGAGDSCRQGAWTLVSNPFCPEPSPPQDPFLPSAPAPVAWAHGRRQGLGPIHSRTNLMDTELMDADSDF
- protocol notes: Antagonist activity at human Smo receptor in HEPM cells assessed as inhibition of Gli expression after 24 hrs by quantigene assay
pIC50: −log10 of the molar value.
Label yes (1) when pIC50 is at or above 8; anything below gets no (0).

substance_smiles=C[C@@H]1CN(C(=O)c2ccccc2)CCN1c1nnc(-c2ncco2)c2ccccc12 group_label="no (0)"
substance_smiles=C[C@@H]1CN(C(=O)c2ccccc2)CCN1c1nnc(-n2ccnc2)c2ccccc12 group_label="no (0)"
substance_smiles=C[C@@H]1CN(C(=O)c2ccccc2)CCN1c1nnc(-c2ccc(C(N)=O)cc2)c2ccccc12 group_label="no (0)"
substance_smiles=C[C@@H]1CN(C(=O)c2ccccc2)CCN1c1nnc(-c2ccccc2)c2ccncc12 group_label="yes (1)"
substance_smiles=C[C@@H]1CN(C(=O)c2ccccc2)CCN1c1nnc(-c2ccc(C(F)(F)F)cc2)c2ccncc12 group_label="yes (1)"
substance_smiles=C[C@@H]1CN(C(=O)c2ccccc2)CCN1c1nnc(-c2ccc(C(=O)O)cc2)c2ccccc12 group_label="no (0)"
substance_smiles=C[C@@H]1CN(C(=O)c2ccccc2)CCN1c1nnc(-c2cncnc2)c2ccccc12 group_label="no (0)"
substance_smiles=C[C@@H]1CN(C(=O)c2ccccc2)CCN1c1nnc(-c2ccccc2)c2ncccc12 group_label="no (0)"

###

metabolised at 0.5 h values by entry
- protocol notes: Metabolic stability in human liver microsomes assessed as compound turn over after 30 mins
- Type: ADME, Microsome
- condition summary: read-out: Activity
measurement label: metabolised at 0.5 h

substance_smiles=C[C@@H]1CN(C(=O)c2ccccc2)CCN1c1nnc(-c2ncco2)c2ccccc12 measurement_label="metabolised at 0.5 h" result="< 10%"
substance_smiles=C[C@@H]1CN(C(=O)c2ccccc2)CCN1c1nnc(-c2ccc(C(N)=O)cc2)c2ccccc12 measurement_label="metabolised at 0.5 h" result="< 10%"
substance_smiles=CC(=O)Oc1ccc(-c2nnc(N3CCN(C(=O)c4ccccc4)C[C@H]3C)c3ccccc23)cc1 measurement_label="metabolised at 0.5 h" result="> 95%"
substance_smiles=C[C@@H]1CN(C(=O)c2ccccc2)CCN1c1nnc(-n2ccnc2)c2ccccc12 measurement_label="metabolised at 0.5 h" result="< 10%"

The measured values listed here are drawn from ChEMBL document CHEMBL1208732.
